The origin of these recorded values is patent US8969352B2.

Please respond with reported Ki for every item in the list.
- measured.target: UniProtKB O43613
- experiment.summary: Human orexin 1 receptor radioligand binding
- details: CHO cells stably expressing human orexin 1 receptor; competitive radioligand binding, apparent Ki; read-out: hOX1 Ki
- Procedure: Rat and Human Orexin 1 Receptor Radioligand Binding Studies After centrifugation (2K×G, 5 min at 4° C.), the supernatant was aspirated and the pellets frozen and stored at −80° C. […] Total and nonspecific binding was determined in the absence and presence of 10 μM almorexant. […] Plates were dried in 55° C. oven for 60 min, scintillation fluid was added, and the radioactivity was counted on a Topcount (Packard).
Entry rule: numbers only, all in nM.

Considering COc1ccc(C(=O)N2CC3CC(Oc4ccc(C(F)(F)F)cn4)C2C3)c(-c2ncccn2)c1 (racemic) , its Ki with UniProtKB O43613 was recorded as 59

Considering Cc1ccc(C(=O)N2C[C@H]3C[C@@H](Oc4ccc(C(F)(F)F)cn4)[C@@H]2C3)c(-n2nccn2)n1 , its Ki with UniProtKB O43613 was recorded as 47

Considering O=C(c1c(F)cccc1-c1ncccn1)N1C[C@H]2C[C@@H](Oc3ccc(C(F)(F)F)cn3)[C@@H]1C2 , its Ki with UniProtKB O43613 was recorded as 8

Considering O=C(c1ccccc1-n1nccn1)N1C[C@H]2C[C@@H](Oc3ccc(C(F)(F)F)cn3)[C@@H]1C2 , its Ki with UniProtKB O43613 was recorded as 11
